I'd appreciate it if you could supply IC50 values for the items below.
- ASSAYED_SYSTEM: G protein-coupled receptor kinase 5 (Bos taurus, UniProt P43249)
- Sequence (P43249 whole entry): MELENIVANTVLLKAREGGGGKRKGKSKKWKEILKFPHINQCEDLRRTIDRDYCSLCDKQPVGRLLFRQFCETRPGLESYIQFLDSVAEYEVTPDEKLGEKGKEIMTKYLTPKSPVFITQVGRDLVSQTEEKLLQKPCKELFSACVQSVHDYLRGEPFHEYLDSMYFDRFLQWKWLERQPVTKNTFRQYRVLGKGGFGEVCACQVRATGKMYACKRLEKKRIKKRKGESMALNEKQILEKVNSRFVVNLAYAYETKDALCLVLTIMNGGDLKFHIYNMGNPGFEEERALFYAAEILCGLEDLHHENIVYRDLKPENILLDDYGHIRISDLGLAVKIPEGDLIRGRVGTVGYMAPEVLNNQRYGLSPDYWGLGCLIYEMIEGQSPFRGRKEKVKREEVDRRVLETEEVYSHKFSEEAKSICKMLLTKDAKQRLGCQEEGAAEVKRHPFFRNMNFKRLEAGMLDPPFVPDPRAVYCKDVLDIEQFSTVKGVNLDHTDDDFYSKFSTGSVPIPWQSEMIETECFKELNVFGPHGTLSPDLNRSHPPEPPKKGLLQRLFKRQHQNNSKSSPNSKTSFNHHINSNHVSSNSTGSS
- ASSAY_TEXT: Inhibition of bovine GRK5 assessed as decrease in phosphorylation of tubulin after 5 mins by SDS-PAGE analysis
Hi! Could you send only the number? It should be in µM, unit omitted.

For reference, reported IC50 for CC1=C(C(=O)Nc2cc(Cl)c3[nH]ncc3c2)C(c2ccc(C(F)(F)F)cc2)CC(=O)N1 (configuration not stated) stands at 39.8

For reference, reported IC50 for CC1=C(C(=O)Nc2ccc3[nH]ncc3c2)C(c2ccc3ccccc3c2)CC(=O)N1 (configuration not stated) stands at 63.1
